- Assay info: Binding affinity to GST tagged human CFTR PDZ2 domain
Property name: IC50 (µM)
One number for each entry, in µM.

Some entries whose results are on file:
{"Molecule": "CCCCC(O)c1[nH]c2cc(C)c(C(=O)O)cc2c1CCc1ccccc1 (stereo not drawn)", "IC50 (µM)": 160}
{"Molecule": "CCCCCc1c(CO)c2cc(C)c(C(=O)O)cc2n1CCc1ccccc1", "IC50 (µM)": 380}

Field: next molecule
Enquiry: Tell me the measured IC50 of Cc1cc2[nH]c(C(O)CCCC(=O)O)c(CCc3ccccc3)c2cc1C(=O)O (stereo not drawn) , please.
Return: 330
